tested on: Escherichia coli; experiment: microbe, parasite or virus in culture; settings: ATCC 25922
Description: Antibacterial activity against Escherichia coli ATCC 25922 by microdilution assay
Field: MIC. Provide a value for each of the molecules that follow.

Item NC[C@H]1O[C@H](O[C@H]2[C@H](O)[C@@H](O[C@H]3O[C@H](CO)[C@@H](O)[C@H](N)[C@H]3O)[C@H](N)C[C@@H]2N)[C@H](N)C[C@@H]1O has what recorded MIC?
1 µg/mL

Report MIC for CCCCCCCCCCCO[C@@H]1[C@@H](N)[C@@H](O[C@H]2[C@H](O)[C@@H](O)[C@H](N)C[C@@H]2N)O[C@H](CN)[C@H]1O please.
64 µg/mL

Could you tell me which MIC is on file for NC[C@@H]1O[C@H](O[C@H]2[C@@H](O)[C@H](O[C@@H]3[C@@H](O)[C@H](N)C[C@H](N)[C@H]3O[C@H]3O[C@H](CN)[C@@H](O)[C@H](O)[C@H]3N)O[C@@H]2CO)[C@H](N)[C@@H](O)[C@@H]1O ?
2 µg/mL

Which MIC value is on record for CCCCCCCCCO[C@@H]1[C@@H](N)[C@@H](O[C@H]2[C@H](O)[C@@H](O)[C@H](N)C[C@@H]2N)O[C@H](CN)[C@H]1OCCCCCCCCC ?
4 to 8 µg/mL

Report MIC for NC[C@H]1O[C@H](O[C@H]2[C@H](O)[C@@H](OCCCCc3ccc4ccccc4c3)[C@H](N)C[C@@H]2N)[C@H](N)[C@@H](OCCCCc2ccc3ccccc3c2)[C@@H]1O please.
8 µg/mL

###

assay: Cytotoxicity against mouse J774 cells assessed as cell viability at 30 uM after 24 hrs by MTT assay relative to control; type: cell-based; conditions: J774 cells, read-out: Activity
Exercise: state measured viability at 24 h, 30 µM for each of the molecules provided.
Numbers only here, please. The scale is %.

What measured viability at 24 h, 30 µM goes with CCCCCCCCCCCO[C@@H]1[C@@H](N)[C@@H](O[C@H]2[C@H](O)[C@@H](OCCCCCCC)[C@H](N)C[C@@H]2N)O[C@H](CN)[C@H]1O ?
39.1

Using the record for CCCCCCCO[C@@H]1[C@@H](N)[C@@H](O[C@H]2[C@H](O)[C@@H](OCCCCCCC)[C@H](N)C[C@@H]2N)O[C@H](CN)[C@H]1O , report its viability at 24 h, 30 µM.
79.9

# get_value(readout='viability at 24 h, 30 µM', item= CCCCCCCCCCO[C@@H]1[C@@H](N)[C@@H](O[C@H]2[C@H](O)[C@@H](OCCCCCCCCCC)[C@H](N)C[C@@H]2N)O[C@H](CN)[C@H]1O )
14.5

# input molecule: CCCCCCCCCCCO[C@@H]1[C@@H](N)[C@@H](O[C@H]2[C@H](O)[C@@H](OCCCCCCCCCCC)[C@H](N)C[C@@H]2N)O[C@H](CN)[C@H]1O ; wanted: its viability at 24 h, 30 µM
14.1

Query: viability at 24 h, 30 µM; subject: CCCCCCCCCO[C@@H]1[C@@H](N)[C@@H](O[C@H]2[C@H](O)[C@@H](OCCCCCCCCC)[C@H](N)C[C@@H]2N)O[C@H](CN)[C@H]1O
67.4

Looking for the measured viability at 24 h, 30 µM of CCCCCCCO[C@@H]1[C@@H](N)[C@@H](O[C@H]2[C@H](O)[C@@H](O)[C@H](N)C[C@@H]2N)O[C@H](CN)[C@H]1O , can you help?
70.2

Consider the molecule shown here: CCCCCCCCCCCO[C@@H]1[C@@H](O)[C@H](O[C@H]2O[C@H](CN)[C@@H](O)[C@H](O)[C@H]2N)[C@@H](N)C[C@H]1N What is its recorded viability at 24 h, 30 µM?
83.4

Can you look up the measured viability at 24 h, 30 µM of CCCCCCCO[C@@H]1[C@@H](O)[C@H](O[C@H]2O[C@H](CN)[C@@H](O)[C@H](O)[C@H]2N)[C@@H](N)C[C@H]1N for me?
71.3

// lookup viability at 24 h, 30 µM for CCCCCCCCCCCO[C@@H]1[C@@H](O)[C@H](O[C@H]2O[C@H](CN)[C@@H](O)[C@H](OCCCCCCC)[C@H]2N)[C@@H](N)C[C@H]1N
38.8

What value of viability at 24 h, 30 µM has been reported for the following molecule? NC[C@H]1O[C@H](O[C@H]2[C@H](O)[C@@H](OCc3ccc4ccccc4c3)[C@H](N)C[C@@H]2N)[C@H](N)[C@@H](OCc2ccc3ccccc3c2)[C@@H]1O
75.7

Looking for the measured viability at 24 h, 30 µM of CCCCCCCCCCCO[C@@H]1[C@@H](N)[C@@H](O[C@H]2[C@H](O)[C@@H](O)[C@H](N)C[C@@H]2N)O[C@H](CN)[C@H]1O , can you help?
77.1

Any idea what viability at 24 h, 30 µM was measured for NC[C@H]1O[C@H](O[C@H]2[C@H](O)[C@@H](OCCCc3ccc4ccccc4c3)[C@H](N)C[C@@H]2N)[C@H](N)[C@@H](OCCCc2ccc3ccccc3c2)[C@@H]1O ?
89.5

Look up viability at 24 h, 30 µM: CCCCCCCCO[C@@H]1[C@@H](N)[C@@H](O[C@H]2[C@H](O)[C@@H](OCCCCCCCC)[C@H](N)C[C@@H]2N)O[C@H](CN)[C@H]1O
65.1

###

system: Staphylococcus aureus; assay: Antibacterial activity against methicillin-resistant Staphylococcus aureus ATCC 33592 by microdilution assay; type: functional
Provide the recorded MIC for the entries that follow.
Answer format: numeric, µg/mL implied, no suffix.

# returns recorded MIC (system: Staphylococcus aureus) for CCCCCCCCCCCO[C@@H]1[C@@H](N)[C@@H](O[C@H]2[C@H](O)[C@@H](OCCCCCCCCCCC)[C@H](N)C[C@@H]2N)O[C@H](CN)[C@H]1O
64

Lab note: need MIC with Staphylococcus aureus for entry CCCCCCCCCCCO[C@@H]1[C@@H](N)[C@@H](O[C@H]2[C@H](O)[C@@H](O)[C@H](N)C[C@@H]2N)O[C@H](CN)[C@H]1O , please look it up.
16

Identify the measured MIC of NC[C@H]1O[C@H](O[C@H]2[C@H](O)[C@@H](O[C@H]3O[C@H](CO)[C@@H](O)[C@H](N)[C@H]3O)[C@H](N)C[C@@H]2N)[C@H](N)C[C@@H]1O [TOBRAMYCIN] for Staphylococcus aureus.
64

Entry CCCCCCCCCCCO[C@@H]1[C@@H](O)[C@H](O[C@H]2O[C@H](CN)[C@@H](O)[C@H](OCCCCCCC)[C@H]2N)[C@@H](N)C[C@H]1N , system Staphylococcus aureus: what MIC was measured?
1

Hello, I am looking for reported MIC with Staphylococcus aureus for CCCCCCCCCO[C@@H]1[C@@H](N)[C@@H](O[C@H]2[C@H](O)[C@@H](O)[C@H](N)C[C@@H]2N)O[C@H](CN)[C@H]1OCCCCCCCCC . Could you help?
4

Any idea what MIC came out for CCCCCCCCCCCO[C@@H]1[C@@H](O)[C@H](O[C@H]2O[C@H](CN)[C@@H](O)[C@H](O)[C@H]2N)[C@@H](N)C[C@H]1N on Staphylococcus aureus?
8

Recorded MIC for NC[C@H]1O[C@H](O[C@H]2[C@H](O)[C@@H](OCCCCc3ccc4ccccc4c3)[C@H](N)C[C@@H]2N)[C@H](N)[C@@H](OCCCCc2ccc3ccccc3c2)[C@@H]1O with Staphylococcus aureus, please?
2

So what MIC did CCCCCCCCO[C@@H]1[C@@H](N)[C@@H](O[C@H]2[C@H](O)[C@@H](OCCCCCCCC)[C@H](N)C[C@@H]2N)O[C@H](CN)[C@H]1O get with Staphylococcus aureus?
2

###

tested on: Escherichia coli; assay: Antibacterial activity against Escherichia coli PAZ505H8101 harboring AAC6'-1B by microdilution assay; format: functional
Provide the recorded MIC for the entries that follow.
Record the value in µg/mL, omitting the unit from your answer.

What MIC appears in the records for this compound with Escherichia coli? NC[C@H]1O[C@H](O[C@H]2[C@H](O)[C@@H](O[C@H]3O[C@H](CO)[C@@H](O)[C@H](N)[C@H]3O)[C@H](N)C[C@@H]2N)[C@H](N)C[C@@H]1O
32

Please state recorded MIC (tested on Escherichia coli) of CCCCCCCCCCCO[C@@H]1[C@@H](N)[C@@H](O[C@H]2[C@H](O)[C@@H](OCCCCCCCCCCC)[C@H](N)C[C@@H]2N)O[C@H](CN)[C@H]1O
16

Query the reported MIC for Escherichia coli; item: NC[C@@H]1O[C@H](O[C@H]2[C@@H](O)[C@H](O[C@@H]3[C@@H](O)[C@H](N)C[C@H](N)[C@H]3O[C@H]3O[C@H](CN)[C@@H](O)[C@H](O)[C@H]3N)O[C@@H]2CO)[C@H](N)[C@@H](O)[C@@H]1O
4
